Task for the reader: assign each of the following compounds its reported WBC.
- Species: Rattus norvegicus
- Assay procedure: Open TG-GATES - Regimen: Daily Repeat
- Format: toxicity, organism-based, Sprague-Dawley
- Set-up: regimen Daily Repeat, gender Male, age 6 weeks
- Measurement context: in vivo, po, 300 mg/kg, […], tissue Blood, route gavage, dose level Middle, time 14 day
Just the number in x10_2/uL, nothing appended.

Data request: // query WBC value for entry O=C(O)c1cccnc1 [NIACIN]
Data returned: 119.8

Data request: Then O=C(N[C@H](CO)[C@H](O)c1ccc([N+](=O)[O-])cc1)C(Cl)Cl [CHLORAMPHENICOL] ?
Data returned: 80

Data request: Lookup CC(C)(S)[C@@H](N)C(=O)O [PENICILLAMINE]
Data returned: 103.7

Data request: Try the compound CCN1CCCC1CNC(=O)c1cc(S(N)(=O)=O)ccc1OC (centres undefined) [SULPIRIDE]
Data returned: 102.3

* * *

- Species on record: Rattus norvegicus
- Assay procedure: Open TG-GATES - Regimen: Single
- Type: toxicity, organism-based, Sprague-Dawley
- Design: regimen Single, gender Male, age 6 weeks
- Measurement context: in vivo, po, 0 mg/kg, 24 h, tissue Blood, route gavage, dose level Control
Measurement type: Mono (%)
Give just the numeric value; % need not be written.

Data request: For "Oc1ncnc2[nH]ncc12" , what is its reported Mono?
Data returned: 12.4

Data request: Try the molecule CCN1CCCC1CNC(=O)c1cc(S(N)(=O)=O)ccc1OC (stereo unspecified) [SULPIRIDE]
Data returned: 3.2

Data request: Subsequent entry: "C[C@]12CCC(=O)C=C1CC[C@@H]1[C@@H]2CC[C@@]2(C)[C@H]1CC[C@]2(C)O"
Data returned: 2.8

Data request: Let us now turn to "Nc1nc(N)c2nc(-c3ccccc3)c(N)nc2n1"
Data returned: 2.2

Data request: How about this molecule: "CCSCC[C@H](N)C(=O)O"
Data returned: 2.6

Data request: Same lookup for "CCC(C)(C)C(=O)O[C@H]1C[C@@H](C)C=C2C=C[C@H](C)[C@H](CC[C@@H]3C[C@@H](O)CC(=O)O3)[C@H]21" , please.
Data returned: 8.2

Data request: Next: "C[C@](N)(Cc1ccc(O)c(O)c1)C(=O)O"
Data returned: 3.4

Data request: Entry to check: "CC(=O)Oc1cc(C(C)C)c(OCCN(C)C)cc1C"
Data returned: 2.2

Data request: Proceed to "CCc1oc2ccccc2c1C(=O)c1cc(I)c(O)c(I)c1"
Data returned: 7.2

Data request: Quick one: CC(C)C(=O)Nc1ccc([N+](=O)[O-])c(C(F)(F)F)c1 [FLUTAMIDE]
Data returned: 3.2

Data request: Item: "CC(C)(S)[C@@H](N)C(=O)O"
Data returned: 3.6

Data request: What about this molecule? CC(=N)S [THIOACETAMIDE]
Data returned: 6.2

Data request: One more molecule: "O=C(N[C@H](CO)[C@H](O)c1ccc([N+](=O)[O-])cc1)C(Cl)Cl"
Data returned: 2.8

Data request: Next molecule up: "CN1C(=O)OC(C)(C)C1=O"
Data returned: 3

Data request: Query "C#C[C@]1(O)CC[C@H]2[C@@H]3CCc4cc(O)ccc4[C@H]3CC[C@@]21C" next
Data returned: 3.6

Data request: Next molecule up: "O=C(O)c1cccnc1"
Data returned: 2.6

* * *

- Species: Rattus norvegicus
- Assay procedure: Open TG-GATES - Regimen: Daily Repeat
- Format: toxicity, organism-based, Sprague-Dawley
- Design: regimen Daily Repeat, gender Male, age 6 weeks
- Measurement context: in vivo, po, 100 mg/kg, 72 h, tissue Blood, route gavage, dose level Low, time 3 day
For each of the compounds below, state its Eos.
Write it as a number; the unit % goes unstated.

Data request: What value of Eos has been recorded for this entry: CC(C)(S)[C@@H](N)C(=O)O [PENICILLAMINE]
Data returned: 1

Data request: # repeat for CCN1CCCC1CNC(=O)c1cc(S(N)(=O)=O)ccc1OC (centres undefined) [SULPIRIDE]
Data returned: 1

Data request: Subsequent entry: O=C(O)c1cccnc1 [NIACIN]
Data returned: 1.2

Data request: // same read-out, input: O=C(N[C@H](CO)[C@H](O)c1ccc([N+](=O)[O-])cc1)C(Cl)Cl [CHLORAMPHENICOL]
Data returned: 1

* * *

- Species on record: Rattus norvegicus
- Assay procedure: Open TG-GATES - Regimen: Daily Repeat
- Type: toxicity, organism-based, Sprague-Dawley
- Parameters: regimen Daily Repeat, gender Male, age 6 weeks
- Measurement context: in vivo, po, 0 mg/kg, […], tissue Liver, route gavage, dose level Control, time 28 day
Measurement type: LIVER (g)
Only the number, expressed in g, is required.

Data request: Record request: LIVER value, item "Nc1nc(N)c2nc(-c3ccccc3)c(N)nc2n1"
Data returned: 16.7

Data request: Also, CC(C)C(=O)Nc1ccc([N+](=O)[O-])c(C(F)(F)F)c1 [FLUTAMIDE] please.
Data returned: 15

Data request: Item: "CCc1oc2ccccc2c1C(=O)c1cc(I)c(O)c(I)c1"
Data returned: 15.6

Data request: Similarly, "Oc1ncnc2[nH]ncc12" ?
Data returned: 16.2

Data request: Request: "CCC(C)(C)C(=O)O[C@H]1C[C@@H](C)C=C2C=C[C@H](C)[C@H](CC[C@@H]3C[C@@H](O)CC(=O)O3)[C@H]21"
Data returned: 15.9

* * *

- Species on record: Rattus norvegicus
- Assay procedure: Open TG-GATES - Regimen: Single
- Format: toxicity, organism-based, Sprague-Dawley
- Set-up: regimen Single, gender Male, age 6 weeks
- Measurement context: in vivo, po, 0 mg/kg, 3 h, tissue Plasma, route gavage, dose level Control
Measurement type: PL (mg/dL)
Quick reminder: number only, in mg/dL, skip the unit.

Data request: I'd like to know its PL. The compound in question is "C[C@](N)(Cc1ccc(O)c(O)c1)C(=O)O"
Data returned: 147.2

Data request: Also "C#C[C@]1(O)CC[C@H]2[C@@H]3CCc4cc(O)ccc4[C@H]3CC[C@@]21C" ?
Data returned: 157.6

Data request: # repeat for "O=C(N[C@H](CO)[C@H](O)c1ccc([N+](=O)[O-])cc1)C(Cl)Cl"
Data returned: 136.2

Data request: And then "CC(C)(S)[C@@H](N)C(=O)O" , what is it?
Data returned: 137.4

Data request: Let us now turn to CC(=N)S [THIOACETAMIDE]
Data returned: 141.8

Data request: Again, but for "CCC(C)(C)C(=O)O[C@H]1C[C@@H](C)C=C2C=C[C@H](C)[C@H](CC[C@@H]3C[C@@H](O)CC(=O)O3)[C@H]21"
Data returned: 147.4

Data request: Then this compound: "CCc1oc2ccccc2c1C(=O)c1cc(I)c(O)c(I)c1"
Data returned: 146

Data request: Item: "CN1C(=O)OC(C)(C)C1=O"
Data returned: 133.8

Data request: CC(C)C(=O)Nc1ccc([N+](=O)[O-])c(C(F)(F)F)c1 [FLUTAMIDE] ?
Data returned: 176

* * *

Give LDH for every item shown.
- Species on record: Rattus norvegicus
- Assay procedure: Open TG-GATES - Regimen: Single
- Format: toxicity, organism-based, Sprague-Dawley
- Design: regimen Single, gender Male, age 6 weeks
- Measurement context: in vivo, po, 0 mg/kg, 6 h, tissue Plasma, route gavage, dose level Control
The response must be a number in IU/L with no trailing unit.

Data request: Quick check: LDH of Oc1ncnc2[nH]ncc12 [ALLOPURINOL] ?
Data returned: 96.6

Data request: Another compound to check: CCN1CCCC1CNC(=O)c1cc(S(N)(=O)=O)ccc1OC (stereo not given) [SULPIRIDE]
Data returned: 105

Data request: Next up: CC(=O)Oc1cc(C(C)C)c(OCCN(C)C)cc1C [MOXISYLYTE]
Data returned: 273

Data request: Item: C[C@]12CCC(=O)C=C1CC[C@@H]1[C@@H]2CC[C@@]2(C)[C@H]1CC[C@]2(C)O [METHYLTESTOSTERONE]
Data returned: 65.6

Data request: Next compound: "Nc1nc(N)c2nc(-c3ccccc3)c(N)nc2n1"
Data returned: 57.2

* * *

For each entry below, report its GLC value.
- Organism: Rattus norvegicus
- Assay procedure: Open TG-GATES - Regimen: Daily Repeat
- Type: toxicity, organism-based, Sprague-Dawley
- Set-up: regimen Daily Repeat, gender Male, age 6 weeks
- Measurement context: in vivo, po, 300 mg/kg, […], tissue Plasma, route gavage, dose level Middle, time 14 day
A number alone suffices; assume mg/dL.

Data request: Recorded GLC for "O=C(N[C@H](CO)[C@H](O)c1ccc([N+](=O)[O-])cc1)C(Cl)Cl" , please?
Data returned: 198.2

Data request: Also "O=C(O)c1cccnc1" , if possible.
Data returned: 201

Data request: Next compound up: "CC(C)(S)[C@@H](N)C(=O)O"
Data returned: 176.4

Data request: Same for CCN1CCCC1CNC(=O)c1cc(S(N)(=O)=O)ccc1OC (centres undefined) [SULPIRIDE]
Data returned: 188.8
